Experiment: endothelial E-selectin expression blockers – imaging, HUVEC, immunofluorescence, MLSMR starter and 10KST1 sets, primary screen (AID 487);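 as to inhibition: signal is fraction of cell area covered by stained E-selectin grains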
Details: HUVEC TNFalpha-induced E-selectin immunofluorescence imaging, at 2 µM; stronger effect = higher value
Classification field: enter t for inhibition values not below -30%, f for values below it.

Known results for molecules:
molecule	class.label
Cc1cccc(C)c1-n1nnnc1SCSc1nnnn1-c1c(C)cccc1C	f
O=C(CN1C(=O)CCSc2ccccc21)Nc1ccc(F)cc1	t
Cc1[nH]c2c(C)cccc2c(=O)c1Br	t
Cc1cccc(-n2ncc3c(N)ncnc32)c1	t
COc1ccccc1N(C)S(=O)(=O)c1ccc(C(=O)NC2=NCCS2)cc1	f

Inquiry: Evaluate `Cc1cc2ncn(C(=O)N3CCOCC3)c2cc1C` : inhibition at minimum -30%?
Reply text: f

Inquiry: Entry `Cn1c(=O)n(C)c2cc(NC(=O)C(F)(F)F)ccc21` : is its inhibition no less than -30%?
Reply text: t

----------
Assay: blockers of RIG-like receptor reporter activation – cell-based, Sendai virus stimulus, luciferase, 10K MLSCN set, TLR/RLR signaling modifier project, primary screen (AID 602276);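 also: firefly luciferase from ISG56 promoter only with Renilla not read in this screen; 0% = Sendai virus plus DMSO and 100% = medium plus DMSO without virus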
Conditions: HEK293 RL24 IRF3 luciferase reporter, at 10 µM, stronger effect = higher value
I'd appreciate it if you could supply inhibition values for the items below.
Answers are plain numbers, in %.

A selection of reference data follows.
molecule	observed.value
CCc1ccccc1NC(=O)C(CC)Sc1nc2cc3c(cc2c(=O)n1Cc1ccco1)OCO3 (stereo unspecified)	16.3
COCCNC(=O)c1ccc(CS(=O)(=O)c2c(Cl)cccc2Cl)o1	-1.52

For each listed entry, give its inhibition.
1. Cc1nnc(SCC(=O)Nc2ccc3c4c(cccc24)CC3)n1C
2. N#CCc1ccc(NC(=O)Nc2cccc(Cl)c2)cc1
3. CCC(CCC(=O)Nc1cccc(C(=O)O)c1)C(=O)O (stereo unspecified)
4. Cc1ccc(C(=O)OCC(=O)Nc2ccc3c(c2)OCO3)o1
5. CC(=O)c1ccc(NC(=O)CCc2c(C)nc3ncnn3c2C)cc1
6. CSc1nsc(SCC(=O)N2CCc3ccccc32)n1

Reply text:
[15.8, -26.8, 4.27, -15.7, -9.29, 5.46]

For each of the molecules below, note its inhibition.
1. Cc1cc(C)n(CC(=O)NC2CCCCC2)n1
2. O=c1c2ccccc2nc(SCc2cn3ccsc3n2)n1-c1ccc(F)cc1

Reply text:
1. 14.7
2. 23.9

Go through the list and state inhibition for each entry.
1. COC(=O)c1cc(-c2c(C)nn(-c3ccccc3)c2C)n[nH]1
2. O=C1c2ccccc2NC(c2cccc(F)c2)N1Cc1ccco1 (stereo unspecified)
3. CCc1nnc(NC(=O)CSc2nnc3ncccn23)s1
4. CCCC(=O)Nc1ccc(C(=O)O)cc1NC(=O)CCC
5. Cc1nc(-c2cccc(-c3noc(C)n3)c2)no1
6. O=C(CSc1nnnn1C1CCCC1)N1CCN(C(=O)c2ccco2)CC1

Reply text:
1. -13.2
2. 16.4
3. 18.7
4. 12.9
5. -12.8
6. -2.14

Go through the list and state inhibition for each entry.
1. O=C(CSc1nnc(-c2cccnc2)o1)OC1CCCCC1
2. O=C(CCCCC(=O)NCc1cccs1)NCc1cccs1
3. Cc1ccc(Cl)cc1N1CCN(C(=O)c2cn(C)c(=O)c3c2c2ccccc2n3C)CC1
4. O=C(Nc1ccccc1)c1cccnc1N1CCOCC1
5. CCOC(=O)Cn1nnnc1CN(Cc1ccc(OC)cc1)Cc1cc2cc(C)ccc2[nH]c1=O

Reply text:
15.3
-6.61
16.1
4.9
-4.16

----------
Assay: inhibitors of TNFa-induced NFkB p65 translocation, primary screen, imaging, HUVEC, MLSMR starter and 10KST1 sets (AID 438);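 also: compound added about 3h40 before a 20 min TNFalpha stimulation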
Conditions: HUVEC TNFa-induced p65 nuclear translocation; measured here: nuclei count (cytotoxicity indicator), at 2.08 µM
Can you tell me cell count for the items I'm about to list?
One number for each entry.

compound	cell count
Cc1ccc2nc(/C(C#N)=N/O)[nH]c2c1	627
Brc1ccc2ncnc(Nc3ccc(N4CCOCC4)cc3)c2c1	534
COc1ccccc1OCc1ccc(C(=O)Nc2ccncc2)o1	729

Dear colleague, could you send me cell count for each of the items below? Thanks.
1. Cc1csc(NC(=O)CCS(=O)(=O)c2ccc(Br)cc2)n1
2. CC1Cc2ccccc2N1C(=O)CSc1nnc2n1C(C)(C)Cc1ccccc1-2 (centres undefined)
3. Cc1cc2oc(=O)cc(CN3CCCCC3)c2cc1C(C)C
4. Cc1cnc(-c2nnc(N(C)C(=O)C3CCOC3)s2)cn1 (centres undefined)
5. COc1ccc(OC)c(N(CC(=O)Nc2cccnc2)S(=O)(=O)c2ccc(OC)c(OC)c2)c1
6. CCC(=NC(C)c1ccccc1)c1c(O)n(C)c(=O)n(C)c1=O (centres undefined)

Reply text:
1. 721
2. 247
3. 366
4. 340
5. 722
6. 287

----------
Assay: endothelial E-selectin expression blockers – imaging, HUVEC, immunofluorescence, MLSMR starter and 10KST1 sets, primary screen (AID 487);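 as to nuclei count: 100% = median nuclei count of all wells on the same plate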
Details: HUVEC TNFalpha-induced E-selectin immunofluorescence imaging, at 2 µM; measured here: cell number, toxicity
Give measured nuclei count for each item. Keep answers brief.
One number for each entry, in %.

Take a look at these entries with their results.
molecule	assay.readout	measurement.units	observed.value
Cc1ccc(S(=O)(=O)N(CC(=O)N2CCOCC2)CC(=O)N2CCOCC2)cc1	nuclei count	%	106
COc1ccc(Br)cc1S(=O)(=O)N1CCOCC1	nuclei count	%	113
C=CCSc1nc2c(c(=O)[nH]c(=O)n2C)n1CC	nuclei count	%	96.3

Take each entry in turn and give its nuclei count.
1. COc1ccc(CN2C(=O)CN=C2Nc2ccc(C)cc2C)cc1
2. CCc1ccccc1NC(=O)CSc1nc2n[nH]c(C)c2c(=N)n1-c1ccc(OC)cc1
3. O=C(CSc1nc(C2CCCCC2)n(-c2ccccc2)n1)NCCN1C(=O)CSC1=O
4. CCOC(=O)N1CCN(C(=O)C2CC(=O)N(Cc3ccc(OC)cc3)C2)CC1 (stereo not given)

Reply text:
1: 95.6; 2: 103; 3: 140; 4: 111

----------
Provide the recorded slope for the entries that follow.
Target: Alpha-2C adrenergic receptor (Homo sapiens) (UniProt P18825)
Sequence (P18825 whole entry, looked up): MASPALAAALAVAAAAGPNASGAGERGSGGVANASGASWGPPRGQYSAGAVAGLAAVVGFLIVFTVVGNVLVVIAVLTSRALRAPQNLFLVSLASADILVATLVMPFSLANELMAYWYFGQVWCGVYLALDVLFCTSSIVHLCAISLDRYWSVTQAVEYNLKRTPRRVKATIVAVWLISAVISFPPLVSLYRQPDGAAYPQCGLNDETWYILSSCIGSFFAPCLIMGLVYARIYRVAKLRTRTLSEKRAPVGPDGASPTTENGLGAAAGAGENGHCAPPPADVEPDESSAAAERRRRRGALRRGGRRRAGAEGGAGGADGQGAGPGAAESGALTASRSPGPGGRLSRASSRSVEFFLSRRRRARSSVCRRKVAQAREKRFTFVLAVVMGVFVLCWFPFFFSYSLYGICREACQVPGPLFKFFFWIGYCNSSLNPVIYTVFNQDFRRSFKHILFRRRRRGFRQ
Experiment: compounds altering alpha2C-coupled GIRK flux – cell-based, HEK293 alpha2C/GIRK1/2, thallium flux, primary screen (AID 624);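 also: slope of fluorescence ratio to pre-addition baseline per second over 15 to 24 s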
Settings: thallium flux BTC fluorescence, at 10 µM, actives lie on both sides
Give bare numbers.

Sample answers from the record:
compound	slope
CCOC(=O)CSC1=C(C#N)C(c2ccc(Cl)cc2)C(C(=O)OC)C(=O)N1 (stereo not drawn)	0.00371
CCCCc1nc2ccccc2n2cc3c(=O)n(C)c(=O)n(C)c3c12	0.00741

Parameters: items (list). Returns: slope for each item.
1. CCCOc1ccccc1NC(=O)c1ccc(N)cc1
2. CC(C)(C)c1ccc(C(=O)N2CCC(C(=O)NCc3ccncc3)CC2)cc1

Reply text:
1. 0.00363
2. 0.00471

For each of the items listed, what is its slope?
1. Cn1c(=O)c2c(nc(NCc3ccco3)n2C/C=C/c2ccccc2)n(C)c1=O
2. Cc1ccc2occ(CN3CCN(c4ccccc4)CC3)c(=O)c2c1
3. CC(C)COc1ccc(-c2nnn(CC(=O)N3CCCC3)n2)cc1
4. COc1cc(S(=O)(=O)NC2CCCCC2C)ccc1Cl (stereo not drawn)
5. O=C(CSc1nc2ccccc2[nH]1)c1ccc2c(c1)OCO2
6. Nc1nc(Nc2ccc(Cl)cc2Cl)nc(C(F)(F)F)n1
7. COc1ccc(-c2nnn(CCc3nn[nH]n3)n2)cc1OC

Reply text:
1: 0.00629; 2: 0.00585; 3: 0.00381; 4: 0.00366; 5: 0.00599; 6: 0.00538; 7: 0.00328

// each compound listed below needs its slope
1. Cc1ccc(CCP(=O)(O)CN2CCOCC2)cn1
2. CCOC(=O)N1CCN(c2nc(-c3ccc(Cl)cc3)cs2)CC1
3. CN1C(=O)C(O)(CC(=O)c2ccc(F)cc2)c2cc(Br)ccc21 (stereo not drawn)
4. CC(=O)Nc1ccc(-c2nn[nH]n2)cc1Cl
5. Cc1ccc(S(=O)(=O)C2(C(=O)NC3CCCC3)CC2)cc1
6. C=C(C)Cn1c(CCCNC(=O)C(C)(C)C)nc2ccccc21
7. O=C(CSc1nnnn1-c1ccccc1)Nc1ccc(Cl)cc1

Reply text:
[0.00662, 0.00625, 0.0055, 0.00431, 0.00643, 0.00533, 0.00622]

----------
Assay: TLR3 IRF3 reporter activation blockers – cell-based, poly I:C stimulus, luciferase, 10K MLSCN set, primary screen (AID 602277)
Details: HEK293-TLR3 RL24 IRF3 luciferase reporter, at 10 µM
Calls of active or inactive are those of the source.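 How the source made its calls: active means inhibition of the reporter signal at or above 50%; inactive means inhibition below 50%.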
// one of YES (active), NO (inactive), no free text

Worked cases, answers included:
smiles	class.label
Cc1nc(NC2=NCN(CCc3ccccc3)CN2)nc2c(C)cccc12	NO
CCc1nnc(NC(=O)c2ccc(S(=O)(=O)NCC(C)C)cc2)s1	NO
Cc1cc(NC(=O)COc2cccc3cccnc23)no1	NO
CCn1c(SCC(=O)Nc2cc(C)on2)nc2sc3c(c2c1=O)CCCC3	YES

Below: the item to evaluate.
Inquiry: In this assay, the call recorded for `O=C(CCN1CCN(CCO)CC1)Nc1ccc(OCc2ccccc2)cc1` was what?
Reply text: NO
